target: T1, human PILRA G78 extracellular domain (recombinant hPILRA ECD) (human, UniProt Q9UKJ1 20-197); assay: SPR, Biacore 8K; antibody captured via anti-human Fab, recombinant ECD injected; 1:1 fit;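 note: CM5 sensor chip, ECD analyte in threefold dilution series at 30 µL/min, 3 min association and 10 min dissociation, kon and koff fitted simultaneously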
T1 construct: also called hPILRA G78
T1 sequence (Q9UKJ1 20-197 R78G limits assumed): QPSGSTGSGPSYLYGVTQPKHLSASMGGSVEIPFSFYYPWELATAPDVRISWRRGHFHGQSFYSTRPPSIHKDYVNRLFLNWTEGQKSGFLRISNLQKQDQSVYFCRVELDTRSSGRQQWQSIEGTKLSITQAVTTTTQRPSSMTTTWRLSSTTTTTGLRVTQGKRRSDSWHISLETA
Kindly state Kd for each of the entries shown.
A complete answer gives the number and then names the unit.

Entry Anti-PILRA antibody clone 9 (antibody, V domains shown, also called Ab; Clone 9) VH: QVQLQESGPGLVKPSGTLSLTCAVSGGSISSNNWWSWVRQPPGKGLEWIGEIYHFGTTTYNPSLKSRVTISVDKSKNQFSLKLSSLTAADTAVYYCARTLRDFYYYMDVWGKGTTVTVSS VL: DIHMTQSPSSLSASVGDRVTITCRTSQNINTYLNWYQQRPGRAPKLLIYAASSLQSGVPSRFSGSGSGTDFILSISSLQPEDFATYYCQQSFNIPLTFGGGTKVEIK has what Kd?
1.6 nM

Entry to check: Anti-PILRA antibody clone 1 (antibody, V domains shown) VH: EVQLVESGGGLVQPGRSLRLSCAVSGFTFDDYAMHWVRQAPGKGLEWVSGFSWNSGSIGYPDSVKGRFTISRDNAKNSLYLQMNSLRAEDTAFYYCAKDKSISAAGRFDYWGQGTLVTVSS VL: DIQMTQSPSSLSASVGDRVTITCQASRRINNYLNWYQQKPGKAPKLLIYDASNLETGVPSRFTGSGSGTDFTLTISSLQPEDIATYYCQQYDNLPLTFGGGTKIKIK
2.3 nM

Next up: Anti-PILRA antibody clone 6 (antibody, V domains shown, the printed lines of the VL are out of order there) VH: EVQLQQSGPELQRPGASVKLSCKASGYTFTEYYMYWVKQRPKQGLELIGRIDPEDGGTDYIEKFKNKATLTADTSSNTAYMQLSSLTSEDTATYFCATTIRGTVFAFWGQGTLVTVSS VL: DIQMTQSPASLSASLGETVTIECRASEDIFNGLAWYQQKPGKSPHLLIYNAKTLHTGVPSRFSGSGSGSQYSLKINSLQSEDVASYFCQQYYDYPLTFGSGTKLEIK
0.72 nM
